Measured IC50 by item
# Test system: HCV replicon
# Assay type: cell-based
Endpoint name: IC50

> print(dat)
                                    molecule  measurement.target          val
 1  CCCS(=O)(=O)Nc1ccc(-c2c(C#N)c3ccc(OCC)cc3n2CC2CCC2)cc1        HCV replicon  0.5 to 2 µM
 2  CCOc1ccc2c(C#N)c(-c3ccc(NC(=O)CCc4ccccc4)cc3)n(CC)c2c1        HCV replicon  0.5 to 2 µM
 3  CCn1c(-c2ccc(NC(=O)OCCCl)cc2)c(C#N)c2ccc(OCCCN3CCOCC3)cc21 [Compound 1116]        HCV replicon  0.5 to 2 µM
 4  CCCn1c(-c2ccc(NS(=O)(=O)CC)cc2)c(C#N)c2ccc(OCc3ccccc3)cc21        HCV replicon  0.5 to 2 µM
 5  CCn1c(-c2ccc(NC(=O)C3CC3)cc2)c(C#N)c2ccc(OCCn3cncn3)cc21        HCV replicon  0.5 to 2 µM
 6  CCn1c(-c2ccc(NS(=O)(=O)C3CC3)cc2)c(C#N)c2ccc(OC(F)(F)F)cc21        HCV replicon     < 0.5 µM
 7  CCCn1c(-c2ccc(NC(=O)OCC)cc2)c(C#N)c2ccc(OCC)cc21        HCV replicon  0.5 to 2 µM
 8  CCCOC(=O)Nc1ccc(-c2c(C#N)c3ccc(OC)cc3n2CC2CC2)cc1        HCV replicon  0.5 to 2 µM
 9  CCOc1ccc2c(C#N)c(-c3ccc(NC(=O)OC4CCCC4)cc3)n(C3CCCC3)c2c1        HCV replicon     < 0.5 µM
10  CCn1c(-c2ccc(NC(=O)OC(C)C)cc2)c(C#N)c2cc3c(cc21)OCO3        HCV replicon  0.5 to 2 µM
11  CCCNC(=O)Nc1ccc(-c2c(C#N)c3ccc(OC)cc3n2CC)cc1C        HCV replicon  0.5 to 2 µM
12  CCCOC(=O)Nc1ccc(-c2c(C#N)c3ccc(OCCCN4CCOCC4)cc3n2CC)cc1        HCV replicon     < 0.5 µM
13  CC#CCOC(=O)Nc1ccc(-c2c(C#N)c3ccc(OCC)cc3n2C2CCC2)cc1        HCV replicon  0.5 to 2 µM
14  CCCNC(=O)Nc1ccc(-c2c(C#N)c3cc(OC)ccc3n2CC)cc1        HCV replicon  0.5 to 2 µM
15  CCOc1ccc2c(C#N)c(-c3ccc(NC(=O)OC4CCCC4)cc3)n(C(C)CC)c2c1 (centres unmarked)        HCV replicon  0.5 to 2 µM
16  CCCn1c(-c2ccc(NS(=O)(=O)C(C)C)cc2)c(C#N)c2cc(OC)ccc21        HCV replicon  0.5 to 2 µM
17  CCOc1ccc2c(C#N)c(-c3ccc(NC(=O)OCCF)cc3)n(CC)c2c1        HCV replicon  0.5 to 2 µM

----------
Recorded IC50 for the following compounds
# Tested on: HCV replicon
# Assay type: cell-based
Endpoint name: IC50

> print(dat)
                                   compound          val
1  CCCCS(=O)(=O)Nc1ccc(-c2c(C#N)c3ccc(OCCF)cc3n2CC)cc1 [Compound 953]  0.5 to 2 µM
2  CCCS(=O)(=O)Nc1ccc(-c2c(C#N)c3ccc(OC(F)F)cc3n2C(C)C)cc1 [Compound 867]  0.5 to 2 µM
3  CCOc1ccc2c(C#N)c(-c3ccc(NC(=O)OC(C)(C)C)cc3)n(C3CCC3)c2c1 [Compound 1072]     < 0.5 µM
4  CCOc1ccc2c(C#N)c(-c3ccc(NC(=O)OCC(C)C)cc3)n(CC3CC3)c2c1 [Compound 1151]     < 0.5 µM
5  CC(C)NC(=O)Nc1ccc(-c2c(C#N)c3ccc(OCCn4cncn4)cc3n2C2CCC2)cc1 [Compound 1318]     < 0.5 µM
6  CCCOc1ccc2c(C#N)c(-c3ccc(NC(=O)OC(C)C4CC4)cc3)n(C(C)C)c2c1 (centres unmarked) [Compound 1242]     < 0.5 µM
7  CCOc1ccc2c(C#N)c(-c3ccc(NC(=O)OCC4(C)CC4)cc3)n(C3CCC3)c2c1 [Compound 1208]     < 0.5 µM
8  CCOc1ccc2c(C#N)c(-c3ccc(NC(=O)OC4(C)CCCC4)cc3)n(C3CCC3)c2c1 [Compound 1209]     < 0.5 µM

----------
# Test system: HCV replicon
# Assay type: cell-based
Endpoint name: IC50

> print(dat)
                           structure.smiles  endpoint.name          val
1  CCn1c(-c2ccc(NC(=O)NC(C)C)cc2)c(C#N)c2ccc(OCCF)cc21           IC50     < 0.5 µM
2  CCOc1ccc2c(C#N)c(-c3ccc(NC(=O)OC(C)C)cc3)n(CC3CC3)c2c1           IC50     < 0.5 µM
3  CCn1c(-c2ccc(NS(=O)(=O)C3CC3)c(C)c2)c(C#N)c2ccc(OC)cc21           IC50  0.5 to 2 µM
4  CCCCNC(=O)Nc1ccc(-c2c(C#N)c3ccc(OCC)cc3n2C(C)C)cc1           IC50     < 0.5 µM
5  C=CCNC(=O)Nc1ccc(-c2c(C#N)c3cc(OC)ccc3n2CC)cc1           IC50  0.5 to 2 µM
6  CCNC(=O)Nc1ccc(-c2c(C#N)c3ccc(OCC)cc3n2CC(C)C)cc1           IC50  0.5 to 2 µM
7  CCn1c(-c2ccc(NC(=O)OCCF)cc2)c(C#N)c2ccc(OCCCN3CCOCC3)cc21           IC50  0.5 to 2 µM
8  CCCOC(=O)Nc1ccc(-c2c(C#N)c3ccc(OC)cc3n2CC)cc1C           IC50  0.5 to 2 µM

----------
# Tested on: HCV replicon
# Format: cell-based
Endpoint name: IC50

> print(dat)
                                    molecule          val
 1  CC(C)NC(=O)Nc1ccc(-c2c(C#N)c3ccc(-c4ccccn4)cc3n2C2CCC2)cc1     < 0.5 µM
 2  CCOc1ccc2c(C#N)c(-c3ccc(NC(=O)OCCN4CCOCC4)cc3)n(C3CCC3)c2c1  0.5 to 2 µM
 3  CC1(COC(=O)Nc2ccc(-c3c(C#N)c4ccc(OCC5CCCO5)cc4n3C3CCC3)cc2)CC1 (centres unmarked)     < 0.5 µM
 4  CCn1c(-c2ccc(NC(=O)OC(C)C)cc2)c(C#N)c2ccc(OCCF)cc21     < 0.5 µM
 5  CCNC(=O)Nc1ccc(-c2c(C#N)c3ccc(OCC)cc3n2C(C)C)cc1  0.5 to 2 µM
 6  CCCCNC(=O)Nc1cccc(-c2c(C#N)c3ccc(OCC)cc3n2CCCC)c1  0.5 to 2 µM
 7  CCCCn1c(-c2cccc(NC(=O)OCCC)c2)c(C#N)c2ccc(OCC)cc21     < 0.5 µM
 8  COc1ccc2c(C#N)c(-c3ccc(NC(=O)NC(C)C)cc3)n(C3CCC3)c2c1  0.5 to 2 µM
 9  CCNC(=O)Nc1cccc(-c2c(C#N)c3ccc(OCCCN4CCOCC4)cc3n2CC)c1  0.5 to 2 µM
10  N#Cc1c(-c2ccc(NC(=O)NC3CCCC3)cc2)n(C2CCC2)c2cc3c(cc12)OCO3     < 0.5 µM
11  CCn1c(-c2cccc(NC(=O)Oc3ccc(OC)cc3)c2)c(C#N)c2ccc(OCCCCl)cc21     < 0.5 µM
12  CCOc1ccc2c(C#N)c(-c3ccc(NC(=O)C4CCC4)cc3)n(CC)c2c1  0.5 to 2 µM
13  C[C@@H](OC(=O)Nc1ccc(-c2cc3ccc(Oc4ncccn4)cc3n2C2CCC2)cc1)C1CC1     < 0.5 µM
14  CCC(=O)Nc1ccc(-c2c(C#N)c3ccc(OC(F)(F)F)cc3n2CC)cc1  0.5 to 2 µM
15  CCCOc1ccc2c(C#N)c(-c3ccc(NC(=O)OCC4CC4)cc3)n(C(C)C)c2c1     < 0.5 µM
16  CCCCOC(=O)Nc1ccc(-c2c(C#N)c3ccc(OC)cc3n2C2CCC2)cc1 [Compound 1077]     < 0.5 µM
17  CCn1c(-c2ccc(NS(=O)(=O)C(C)C)cc2)c(C#N)c2ccc(OC(F)(F)F)cc21     < 0.5 µM
18  CC(OC(=O)Nc1ccc(-c2c(C#N)c3ccc(OC(F)F)cc3n2CC2CC2)cc1)C1CC1 (centres unmarked)  0.5 to 2 µM
19  CCOc1ccc2c(c1)c(C#N)c(-c1ccc(NC(=O)OCC(C)(C)C)cc1)n2C1CCC1     < 0.5 µM
20  CC(C)OC(=O)Nc1ccc(-c2c(C#N)c3ccc(OCCN4CCSCC4)cc3n2C2CCC2)cc1  0.5 to 2 µM
21  CCCn1c(-c2ccc(NS(=O)(=O)CCC)cc2)c(C#N)c2ccc(OCc3ccccc3)cc21  0.5 to 2 µM
22  CCCCOC(=O)Nc1ccc(-c2c(C#N)c3ccc(OC)cc3n2C2CCC2)cc1 [Compound 1075]  0.5 to 2 µM
23  CCCS(=O)(=O)Nc1ccc(-c2c(C#N)c3ccc(OCCF)cc3n2C2CCC2)cc1     < 0.5 µM
24  CCOc1ccc2c(C#N)c(-c3ccc(NC(=O)OCCF)cc3)n(CC(C)C)c2c1  0.5 to 2 µM
25  CCOc1ccc2c(C#N)c(-c3ccc(NC(=O)OCc4ccccn4)cc3)n(C3CCC3)c2c1     < 0.5 µM
26  COc1ccc2c(c1)c(C#N)c(-c1ccc(NS(=O)(=O)C(C)C)cc1)n2C1CCC1  0.5 to 2 µM
27  CCOC(=O)Nc1ccc(-c2c(C#N)c3cc(OCC)ccc3n2C2CCC2)cc1     < 0.5 µM
28  CCOc1ccc2c(C#N)c(-c3ccc(NC(=O)C4CC4)cc3)n(CC)c2c1  0.5 to 2 µM
29  CCCn1c(-c2ccc(NC(=O)NCCc3ccccc3)cc2)c(C#N)c2ccc(OCC)cc21     < 0.5 µM
30  CCOc1ccc2c(C#N)c(-c3ccc(NC(=O)NC4CCCC4)cc3)n(C3CCC3)c2c1     < 0.5 µM
31  C=CCOC(=O)Nc1ccc(-c2c(C#N)c3ccc(OCC)cc3n2C2CCC2)cc1     < 0.5 µM
32  CC(C)OC(=O)Nc1ccc(-c2c(C#N)c3ccc(Oc4ncccn4)cc3n2C(C)C)cc1     < 0.5 µM
